# Target Or System: T1, hPRLR.mFc (soluble dimeric human PRLR) (Homo sapiens, UniProt P16471)
# T1 construct: dimeric (hPRLR.mFc)
# T1 sequence (P16471 with tags, fused parts or gaps): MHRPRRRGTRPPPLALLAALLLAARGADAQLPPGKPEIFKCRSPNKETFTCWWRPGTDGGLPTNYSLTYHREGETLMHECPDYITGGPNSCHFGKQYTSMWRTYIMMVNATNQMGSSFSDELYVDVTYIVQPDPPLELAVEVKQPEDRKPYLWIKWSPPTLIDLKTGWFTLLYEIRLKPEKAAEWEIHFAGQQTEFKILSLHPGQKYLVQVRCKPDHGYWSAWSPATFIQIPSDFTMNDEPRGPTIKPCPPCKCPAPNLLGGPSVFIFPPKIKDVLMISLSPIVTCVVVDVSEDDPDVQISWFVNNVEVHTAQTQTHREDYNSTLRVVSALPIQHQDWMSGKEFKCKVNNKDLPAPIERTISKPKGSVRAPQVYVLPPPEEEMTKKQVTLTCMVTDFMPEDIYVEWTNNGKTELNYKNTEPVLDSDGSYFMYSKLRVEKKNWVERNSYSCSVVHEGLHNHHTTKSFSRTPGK
# Measurement Protocol: Surface plasmon resonance (Biacore T200), mAb-capture format
# Type: binding
# Experimental Conditions: 37° C., antibody-capture format, analyte hPRLR.mFc
Measure: Kd
Note to self: number, then unit, no commentary.

-- ask Give a short answer stating reported Kd for H1H6793P: anti-PRLR antibody, human IgG1 Fc; HCVR/LCVR SEQ ID NOs 146/154 (antibody, V domains shown, human IgG1 Fc) VH: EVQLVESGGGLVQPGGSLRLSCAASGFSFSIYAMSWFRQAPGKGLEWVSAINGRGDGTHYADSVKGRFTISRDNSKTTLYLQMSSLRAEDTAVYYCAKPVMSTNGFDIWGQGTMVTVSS VL: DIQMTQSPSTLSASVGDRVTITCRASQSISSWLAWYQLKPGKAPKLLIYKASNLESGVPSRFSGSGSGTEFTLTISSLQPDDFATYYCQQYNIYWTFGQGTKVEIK .
-- reply 0.347 nM

-- ask Give a short answer stating reported Kd for H1H6960N: human IgG1 Fc form of H2M6960N; anti-PRLR; HCVR/LCVR SEQ ID NOs 322/330 (antibody, V domains shown, human IgG1 Fc) VH: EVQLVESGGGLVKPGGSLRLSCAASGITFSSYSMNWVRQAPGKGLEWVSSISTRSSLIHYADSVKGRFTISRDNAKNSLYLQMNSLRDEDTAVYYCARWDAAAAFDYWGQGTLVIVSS VL: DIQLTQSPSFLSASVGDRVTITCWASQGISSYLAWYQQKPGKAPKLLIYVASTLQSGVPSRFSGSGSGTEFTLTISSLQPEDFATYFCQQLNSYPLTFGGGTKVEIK .
-- reply 0.5 nM
